Procedure summary: pH-dependent interaction of HA-pHLIP agents with POPC liposomes (tryptophan fluorescence)
Type: physicochemical
Particulars: pH-dependent insertion into POPC liposome bilayer; shift of fluorescence maximum vs pH, Henderson-Hasselbalch fit; 7 μM agent, 1.4 mM POPC; 25°C
Reported cooperativity (n) of state II to state III transition values follow for various substances
Hey, just send me the number, nothing else.

>  <Substance>
(Az)GGKGGGK[HA-Peg12]PWRAYLELLFPTETLLLELLLA [HA-Peg12-pHLIP4, v2, single HA-Peg12 on second Lys of pHLIP4]

>  <Result>
2.2

$$$$
>  <Substance>
K(N3)[HA-Peg12]GGGGGK(N3)[HA-Peg12]PWRAYLELLFPTETLLLELLLA [2(HA-Peg12)-pHLIP5]

>  <Result>
0.9

$$$$
>  <Substance>
(Az)GGK[HA-Peg24]GGGK[HA-Peg24]PWRAYLELLFPTETLLLELLLA [2(HA-Peg24)-pHLIP4]

>  <Result>
0.7

$$$$

cooperativity (n) of state II to state III transition for (Az)GGK[HA-Peg12]GGGKPWRAYLELLFPTETLLLELLLA [HA-Peg12-pHLIP4, v1, single HA-Peg12 on first Lys of pHLIP4] is 1.7

cooperativity (n) of state II to state III transition for AK[HA-Peg12]QNDDQNK[HA-Peg12]PWRAYLDLLFPTDTLLLDLLWA [2(HA-Peg12)-pHLIP3] is 1.9

* * *

Reported mid-point (pK) of state II to state III transition values follow for various substances
Procedure summary: pH-dependent interaction of HA-pHLIP agents with POPC liposomes (tryptophan fluorescence)
Format: physicochemical
Particulars: pH-dependent insertion into POPC liposome bilayer; shift of fluorescence maximum vs pH, Henderson-Hasselbalch fit; 7 μM agent, 1.4 mM POPC; 25°C
Hey, just send me the number, nothing else.

>  <Substance>
(Az)GGK[HA-Peg24]GGGK[HA-Peg24]PWRAYLELLFPTETLLLELLLA [2(HA-Peg24)-pHLIP4]

>  <Result>
5.8

$$$$
>  <Substance>
(Az)GGK[HA-Peg12]GGGK[HA-Peg12]PWRAYLELLFPTETLLLELLLA [2(HA-Peg12)-pHLIP4]

>  <Result>
5.8

$$$$
>  <Substance>
AK[HA-Peg12]QNDDQNK[HA-Peg12]PWRAYLDLLFPTDTLLLDLLWA [2(HA-Peg12)-pHLIP3]

>  <Result>
4.8

$$$$
>  <Substance>
AK[3xHA-Peg12]QNDDQNK[3xHA-Peg12]PWRAYLDLLFPTDTLLLDLLWA [2(3xHA-Peg12)-pHLIP3]

>  <Result>
4.8

$$$$
>  <Substance>
(Az)GGKGGGK[HA-Peg12]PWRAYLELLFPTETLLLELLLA [HA-Peg12-pHLIP4, v2, single HA-Peg12 on second Lys of pHLIP4]

>  <Result>
6.8

$$$$

mid-point (pK) of state II to state III transition for K(N3)[HA-Peg12]GGGGGK(N3)[HA-Peg12]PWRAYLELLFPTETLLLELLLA [2(HA-Peg12)-pHLIP5] is 6.2

mid-point (pK) of state II to state III transition for AK[HA-Peg24]QNDDQNK[HA-Peg24]PWRAYLDLLFPTDTLLLDLLWA [2(HA-Peg24)-pHLIP3] is 4.6

mid-point (pK) of state II to state III transition for (Az)GGK[HA-Peg12]GGGKPWRAYLELLFPTETLLLELLLA [HA-Peg12-pHLIP4, v1, single HA-Peg12 on first Lys of pHLIP4] is 6.4

* * *

Procedure summary: pH-dependent interaction of HA-pHLIP agents with POPC liposomes (tryptophan fluorescence)
Type: physicochemical
Particulars: position of tryptophan fluorescence maximum; HA-pHLIP in solution at pH8; excitation 295 nm; 7 μM agent; 25°C
Parameter: λmax in state I (nm)
State the answer as a number, implicitly in nm.

Sample records with λmax in state I:
>  <Substance>
AK[3xHA-Peg12]QNDDQNK[3xHA-Peg12]PWRAYLDLLFPTDTLLLDLLWA [2(3xHA-Peg12)-pHLIP3]

>  <Result>
351

$$$$
>  <Substance>
(Az)GGKGGGK[HA-Peg12]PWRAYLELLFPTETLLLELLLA [HA-Peg12-pHLIP4, v2, single HA-Peg12 on second Lys of pHLIP4]

>  <Result>
348

$$$$
>  <Substance>
AK[HA-Peg24]QNDDQNK[HA-Peg24]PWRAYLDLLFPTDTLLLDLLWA [2(HA-Peg24)-pHLIP3]

>  <Result>
351

$$$$
>  <Substance>
AK[HA-Peg12]QNDDQNK[HA-Peg12]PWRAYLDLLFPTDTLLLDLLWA [2(HA-Peg12)-pHLIP3]

>  <Result>
351

$$$$
>  <Substance>
(Az)GGK[HA-Peg24]GGGK[HA-Peg24]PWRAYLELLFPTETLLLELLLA [2(HA-Peg24)-pHLIP4]

>  <Result>
347

$$$$

λmax in state I for (Az)GGK[HA-Peg12]GGGKPWRAYLELLFPTETLLLELLLA [HA-Peg12-pHLIP4, v1, single HA-Peg12 on first Lys of pHLIP4] is 347

λmax in state I for (Az)GGK[HA-Peg12]GGGK[HA-Peg12]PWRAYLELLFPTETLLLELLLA [2(HA-Peg12)-pHLIP4] is 347

λmax in state I for K(N3)[HA-Peg12]GGGGGK(N3)[HA-Peg12]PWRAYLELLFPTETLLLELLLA [2(HA-Peg12)-pHLIP5] is 347

* * *

Procedure summary: pH-dependent interaction of HA-pHLIP agents with POPC liposomes (tryptophan fluorescence)
Type: physicochemical
Particulars: pH-dependent insertion into POPC liposome bilayer; shift of fluorescence maximum vs pH, Henderson-Hasselbalch fit; 7 μM agent, 1.4 mM POPC; 25°C
Parameter: cooperativity (n) of state II to state III transition
Hey, just send me the number, nothing else.

Sample records with cooperativity (n) of state II to state III transition:
>  <Substance>
AK[HA-Peg24]QNDDQNK[HA-Peg24]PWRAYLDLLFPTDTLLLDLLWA [2(HA-Peg24)-pHLIP3]

>  <Result>
0.9

$$$$
>  <Substance>
(Az)GGK[HA-Peg12]GGGK[HA-Peg12]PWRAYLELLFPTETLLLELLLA [2(HA-Peg12)-pHLIP4]

>  <Result>
1.3

$$$$

Alright, here's another substance for you.
cooperativity (n) of state II to state III transition for AK[3xHA-Peg12]QNDDQNK[3xHA-Peg12]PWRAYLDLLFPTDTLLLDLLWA [2(3xHA-Peg12)-pHLIP3] is 1.9
